All values here come from patent US20100216779A1.

test system: various cell lines of different tumor origins; assay: Inhibition of cell proliferation, InCell Analyzer assay; type: cell-based; details: Homo sapiens, MES-SA, Sarcoma
outcomeMeasure: IC50

Just so you know, measured IC50 for COc1cc(N2CCC(N3CCCCC3)CC2)ccc1Nc1nccc(-c2c(-c3cccc(C(=O)Nc4c(F)cccc4F)c3)nc3ccccn23)n1 [Example 22] came out at > 5 µM

====

System: various cell lines of different tumor origins
Experiment: Inhibition of cell proliferation, InCell Analyzer assay
Format: cell-based
Conditions: Homo sapiens, Caov-3, CAOV-3, Ovary
Description: C. Inhibition of Cell Proliferation For InCell Analyser assay, various cell lines of different tumor origins were grown to 70-80% confluency in appropriate culture media containing 10% fetal bovine serum at 37° C. in a 5% CO2 incubator. […] By counting the number of nuclei, the proliferation index of compound treated groups were calculated as a percentage relative to the DMSO control, which was set to 100%. The IC50 values were calculated using model 205 in ExcelFit.
pIC50: −log10 of the molar value.
outcomeMeasure: pIC50

Just so you know, measured pIC50 for COc1cc(N2CCC(N3CCCCC3)CC2)ccc1Nc1nccc(-c2c(-c3cccc(C(=O)Nc4c(F)cccc4F)c3)nc3ccccn23)n1 [Example 22] came out at 5.30 to 6.00
